Hello, the source for this data is patent US20080124340A1, in case you need it.

Reported Kd values for the following binders.
test.system: cynomolgus monkey EpoR (cynoEpoR) (cynomolgus monkey)
Sequence (chain, as listed by the source): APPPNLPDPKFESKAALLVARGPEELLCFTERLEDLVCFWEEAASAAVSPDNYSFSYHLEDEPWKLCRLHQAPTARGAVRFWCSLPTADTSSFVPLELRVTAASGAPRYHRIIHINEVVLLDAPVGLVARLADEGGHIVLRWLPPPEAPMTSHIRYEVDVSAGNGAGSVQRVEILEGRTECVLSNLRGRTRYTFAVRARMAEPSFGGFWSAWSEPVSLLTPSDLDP
test.name: SPR, Biacore T100; scFv-Fc captured by anti-human IgG Fc on CM5 chip, EpoR as analyte
Quick reminder: number only, in nM, skip the unit.

binder | unit.descriptor | Kd
clone 201 scFv-Fc protein (Fc fusion, part only; not given: scFv linker and IgG1 Fc, not shown: a dimerising Fc or GST) scFv, part: QVQLQESGSGLARPSQTLSLTCAVSGGSISSSAFSWNWIRQPPGKGLEWIGYIYHTGITDYNPSLKSRVTISVDRSKNQFSLNVNSVTAADTAVYYCARGHGSDPAWFDPWGKGTLVTVSSQSVLTQPPSVSVSPGQTASITCSGDKLGDKYASWYQQRPGQSPVLVIYRDTKRPSGIPERFSGSNSGNTATLTISGTQAVDEADYYCQAWDSTTSLVFGGGTKLTVL | nM | 18600

Recorded result, clone 307 scFv-Fc protein (Fc fusion, part only; not given: scFv linker and IgG1 Fc, not shown: a dimerising Fc or GST) scFv, part: EVQLVESGGGLVQPGGSLRLSCAVSGFTFSKYWMTWVRQAPGKGLEWVANIKPDGSEKYYVESVKGRFTISRDNAKNSVYLQMNSVRAEDTAVYYCARVSRGGSFSDWGQGTMVTVSSQSVLTQPPSASGSPGQSVTISCTGTSSDVGGYNYVSWYQQHPDKAPRLMIYDVNKRPSGVPDRFSGSKSGNTASLTVSGLQAEDEAHYYCNSYAGSNNWVFGGGTQLTVL , Kd: 1210

Short answer for clone 13 scFv-Fc protein (Fc fusion, part only; not given: scFv linker and IgG1 Fc, not shown: a dimerising Fc or GST) scFv, part: QVQLQQSGGGVVQPGRSLRLSCAASGFTFSDYAMHWVRQAPGKGLEWVAVISNHGKSTYYADSVKGRFTISRDNSKHMLYLQMNSLRADDTALYYCARDIALAGDYWGQGTLVTVSADIQMTQSPSSLSASVGDRVTITCRASQSISSYLNWYQQLPGKVPKLLIYGASKLQSGVPSRFSGSGSGTDFTLTISSLQPEDFATYYCLQDYNYPLTFGPGTRLEIK : Kd was 920

Form: binder = clone 330 scFv-Fc protein (Fc fusion, part only; not given: scFv linker and IgG1 Fc, not shown: a dimerising Fc or GST) scFv, part: EVQLVESGGGLVQPGGSLRLSCAVSGFTFSKYWMTWVRQAPGKGLEWVANIKPDGSEKYYVESVKGRFTISRDNAKNSVYLQMNSVRAEDTAVYYCARVSRGGSFSDWGQGTLVTVSSQSALTQPPSASGSPGQSVTISCTGTSSDVGAYNYVSWYQQHPGKAPKLMIYEVARRPSGVPDRFSGSKSGNTASLTVSGLQAEDEADYYCSSYAGSNNFAVFGRGTKLTVL ; Kd = 890

Per the records, this binder ( clone 295 scFv-Fc protein (Fc fusion, part only; not given: scFv linker and IgG1 Fc, not shown: a dimerising Fc or GST) scFv, part: EVQLVESGGGLVQPGGSLRLSCAASGFTFSSYAMSWVRQAPGKGLEWVSGISGSGSSEGGTYYADSVKGRFTLSRDNSKNTLYLQMNSLRAEDTALYYCVKDRPSRYSFGYYFDYWGRGTLVTVSSLPVLTQPPSVSVSPGQTASIACSGNKLGDKYVSWYQQKPGQSPLLVIYQDTKRPSGIPERFSGSNSGNTATLTISGTQAMDEADYYCQAWDSSTDVVFGGGTKLTVL ) has Kd equal to 539

Recorded Kd (binder clone 15 scFv-Fc protein (Fc fusion, part only; not given: scFv linker and IgG1 Fc, not shown: a dimerising Fc or GST) scFv, part: QVQLQESGPGLVRPSGTLSLTCAVSGGSIGSSNWWSWVRQAPGKGLEWIGEISQSGSTNYNPSLKGRVTISLDRSRNQLSLKLSSVTAADTAVYYCARQLRSIDAFDIWGPGTTVTVSASYVLTQPPSVSVSPGLTATITCSGDKLGDKYASWYQQKPGQSPVLVIYQDRKRPSGIPERFSGSNSGNTATLTISGTQAVDEADYYCQAWDSDTSYVFGTGTQLTVL ): 3130
